Origin of values: patent US20220089592A1

Listing of entries alongside the reported IC50.
Target: IRAK4 (Homo sapiens)
Sequence (Q9NWZ3 1-460): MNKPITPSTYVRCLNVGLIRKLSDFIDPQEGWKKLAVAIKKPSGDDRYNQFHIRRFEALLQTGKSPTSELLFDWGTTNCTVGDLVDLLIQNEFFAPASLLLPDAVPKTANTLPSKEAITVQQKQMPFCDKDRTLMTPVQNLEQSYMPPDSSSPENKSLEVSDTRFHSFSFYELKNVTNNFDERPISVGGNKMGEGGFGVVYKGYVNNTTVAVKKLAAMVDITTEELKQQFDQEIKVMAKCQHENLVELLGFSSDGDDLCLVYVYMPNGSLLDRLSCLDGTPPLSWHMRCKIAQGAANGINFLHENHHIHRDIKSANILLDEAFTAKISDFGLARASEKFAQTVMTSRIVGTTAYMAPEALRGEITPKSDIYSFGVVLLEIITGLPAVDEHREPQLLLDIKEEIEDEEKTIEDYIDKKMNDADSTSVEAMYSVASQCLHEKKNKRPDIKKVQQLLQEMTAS
Experiment: 2-hour 1 mM ATP IRAK4 Biochemical assay (as above, but with 100 pM IRAK4 and 1 mM ATP)
Settings: IRAK4 MSD BIOCHEMICAL (1 mM ATP) IC50 (μM), 100 pM IRAK4, 2 hours
RESULT_TYPE: IC50 (µM)

INSERT INTO results (compound, result_type, measured_result) VALUES
  ('CCOc1nc2nc(C3CCOCC3)cn2cc1NC(=O)c1cccc(OC)n1', 'IC50', 0.016),
  ('CCOc1cc2nc(C3CCOCC3)cn2cc1NC(=O)c1cccc(C2CCOC2)n1 (centres unmarked)', 'IC50', 0.011),
  ('CC(C)Oc1nc2nc(C34COC(C)(C3)C4)cn2cc1NC(=O)c1cnn2cccc(F)c12', 'IC50', 0.001),
  ('CCOc1cc2nc(C3CCCC(=O)N3C)cn2cc1NC(=O)c1cccc(C(F)F)n1 (centres unmarked)', 'IC50', 0.001),
  ('CCOc1cc2nc(C(C)(C)O)c(Cl)n2cc1NC(=O)c1cccc(C(F)F)n1', 'IC50', 0.438),
  ('CCOc1cc2nc(C(F)(F)CCOC)cn2cc1NC(=O)c1cccc(C(F)F)n1', 'IC50', 0.003),
  ('CCOc1cc2nc(C3CCOCC3)cn2cc1NC(=O)c1csc(C)n1', 'IC50', 0.01),
  ('CCOc1cc2nc(C3CC3)cn2cc1NC(=O)c1cccc(C2CCOC2)n1 (centres unmarked)', 'IC50', 0.015),
  ('CCOc1nc2nc(CC3CCOC3)cn2cc1NC(=O)c1cccc(C(F)(F)F)n1 (centres unmarked) [Example 93]', 'IC50', 0.005),
  ('CCOc1nc2nc(CC)cn2cc1NC(=O)c1cccc(C(F)F)n1', 'IC50', 0.018),
  ('CCOc1cc2nc(C34COCC3C4)cn2cc1NC(=O)c1cccc(C(F)F)n1 (centres unmarked)', 'IC50', 0.001),
  ('CCOc1cc2nc(C3CCOCC3)cn2cc1NC(=O)c1csc(C2CC2)n1', 'IC50', 0.001),
  ('CCOc1cc2nc(C3CC3)cn2cc1NC(=O)c1cccc(OC)n1', 'IC50', 0.063),
  ('Cc1cccc(C(=O)Nc2cn3cc(C45COC(C)(C4)C5)nc3c(F)c2OC(C)C)c1F [Example 425, 2,2,2-trifluoroacetate]', 'IC50', 0.003),
  ('CCOc1cc2nc(C3CCOCC3)cn2cc1NC(=O)c1cccc(OC)n1', 'IC50', 0.004),
  ('CCOc1cc2nc(C3C4COCC43)cn2cc1NC(=O)c1ccn(C2CC2(F)F)n1 (centres unmarked)', 'IC50', 0.002),
  ('O=C(Nc1cn2cc(C3CC3)nc2cc1OCC(F)(F)F)c1cccc(C(F)F)n1', 'IC50', 0.007);

----------
Target: IRAK4 (Homo sapiens)
Experiment: 2-hour 10 μM ATP Biochemical Assay (MesoScale Detection format; IRAK4 phosphorylation of biotin labeled IRAK1 activation loop peptide)
Details: read-out: IRAK4 MSD BIOCHEMICAL (10 μM ATP) IC50, 1 nM IRAK4, 2 hours
pIC50: −log10 of the molar value.
RESULT_TYPE: pIC50

INSERT INTO measurements (compound, result_type, measured_result) VALUES
  ('CCOc1nc2nc(CC3CCOC3)cn2cc1NC(=O)c1cccc(C(F)(F)F)n1 (single isomer, unassigned)', 'pIC50', 9.00);

----------
This listing pairs molecules with measured IC50.
Target: IRAK4 (Homo sapiens, UniProt Q9NWZ3)
Assay: 2-hour 1 mM ATP IRAK4 Biochemical assay (as above, but with 100 pM IRAK4 and 1 mM ATP)
Conditions: IRAK4 MSD BIOCHEMICAL (1 mM ATP) IC50 (μM), 100 pM IRAK4, 2 hours
RESULT_TYPE: IC50

INSERT INTO results (molecule, measured_result) VALUES
  ('COc1nc(NC(=O)c2cccc(C(F)F)n2)cn2cc(C34CC(C(F)F)(C3)C4)nc12 [Example 552, 2,2,2-trifluoroacetate]', '0.017 µM'),
  ('CCc1cccc(C(=O)Nc2cn3cc(C4CCOCC4)nc3cn2)n1 [Example 438]', '0.007 µM'),
  ('COc1cccc(C(=O)Nc2cn3cc(C4CCOCC4)nc3cc2C(F)F)n1 [Example 389, 2,2,2-trifluoroacetate]', '0.016 µM'),
  ('CCOc1cc2nc(C3CCOCC3)cn2cc1NC(=O)c1scc(C)c1OC [Example 211]', '0.022 µM');

----------
Molecular target: IRAK4 (Homo sapiens, UniProt Q9NWZ3)
Test: 2-hour 1 mM ATP IRAK4 Biochemical assay (as above, but with 100 pM IRAK4 and 1 mM ATP)
Details: IRAK4 MSD BIOCHEMICAL (1 mM ATP) IC50 (μM), 100 pM IRAK4, 2 hours
RESULT_TYPE: IC50 (µM)

INSERT INTO assay_data (molecule, measured_result) VALUES
  ('CCOc1cc2nc(CC3CCOC3)cn2cc1NC(=O)c1ccn(C)n1 (stereo not shown)', 0.016),
  ('CCOc1nc2nc(C3CCOCC3)cn2cc1NC(=O)c1cccc2c1OCC2', 0.004),
  ('CCOc1cc2nc(C3CCOCC3)cn2cc1NC(=O)c1cccc(OC2CCC2)n1', 0.019),
  ('CCOc1cc2nc(C3CCOCC3)cn2cc1NC(=O)c1cnc2c(c1)CCO2', 0.019),
  ('CCOc1cc2nc(C3CCOCC3)cn2cc1NC(=O)c1cccc(C(C)C)n1', 0.002),
  ('CCOc1cc2nc([C@H]3C[C@@H](OC(C)C)C3)cn2cc1NC(=O)c1cccc(C(F)F)n1', 0.002),
  ('CC(C)Oc1nc2nc(C34COC(C)(C3)C4)cn2cc1NC(=O)c1cccc(C2CCOC2)n1 (stereo not shown)', 0.001),
  ('CCOc1cc2nc(Cn3ccccc3=O)cn2cc1NC(=O)c1cccc(C(F)F)n1', 0.017),
  ('COc1nc(NC(=O)c2cccc(C)c2F)cn2cc(C34COC(C)(C3)C4)nc12', 0.039),
  ('CCOc1cc2nc(C(C)(C)C#N)cn2cc1NC(=O)c1coc(C(C)C)n1', 0.014);

----------
Quick reference: IC50 of the listed items.
Molecular target: IRAK4 (Homo sapiens, UniProt Q9NWZ3)
Sequence (Q9NWZ3 1-460): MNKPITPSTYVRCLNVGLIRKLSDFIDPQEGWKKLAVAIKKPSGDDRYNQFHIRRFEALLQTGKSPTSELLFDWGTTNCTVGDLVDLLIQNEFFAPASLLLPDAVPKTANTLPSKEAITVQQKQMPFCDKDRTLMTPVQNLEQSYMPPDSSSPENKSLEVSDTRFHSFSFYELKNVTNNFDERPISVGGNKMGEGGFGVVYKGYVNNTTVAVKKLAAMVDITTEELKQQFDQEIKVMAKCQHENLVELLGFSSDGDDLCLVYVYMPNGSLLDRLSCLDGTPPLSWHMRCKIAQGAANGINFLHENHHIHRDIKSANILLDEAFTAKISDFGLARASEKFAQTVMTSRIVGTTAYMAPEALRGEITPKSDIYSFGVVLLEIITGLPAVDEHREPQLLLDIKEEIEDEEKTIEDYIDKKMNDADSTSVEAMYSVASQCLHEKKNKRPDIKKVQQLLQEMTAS
Experiment: 2-hour 1 mM ATP IRAK4 Biochemical assay (as above, but with 100 pM IRAK4 and 1 mM ATP)
Details: IRAK4 MSD BIOCHEMICAL (1 mM ATP) IC50 (μM), 100 pM IRAK4, 2 hours
RESULT_TYPE: IC50

INSERT INTO assay_data (molecule, result_type, measured_result) VALUES
  ('CC(C)Oc1cc2nc(C34COC(C)(C3)C4)c(Cl)n2cc1NC(=O)c1cccc(C(F)F)n1 [Example 575, 2,2,2-trifluoroacetate]', 'IC50', '0.012 µM'),
  ('COc1nc(NC(=O)c2cccc3c2OCC3)cn2cc(C34CCC(C)(C3)OC4)nc12 (stereo not drawn) [Example 469, 2,2,2-trifluoroacetate]', 'IC50', '0.008 µM'),
  ('CCOc1ncccc1C(=O)Nc1cn2cc(C3CCOCC3)nc2c(OC)n1 [Example 459]', 'IC50', '0.022 µM'),
  ('COc1ccccc1C(=O)Nc1cn2cc(C34COC(C)(C3)C4)nc2nc1OC1CC1 [Example 350]', 'IC50', '0.006 µM'),
  ('COc1nc(NC(=O)c2cccc(C(F)F)n2)cn2cc(C3CC34CCOCC4)nc12 (stereo not drawn) [Example 558, 2,2,2-trifluoroacetate]', 'IC50', '0.044 µM'),
  ('Cc1cccc(C(=O)Nc2cn3cc(C45COC(C)(C4)C5)nc3c(OC(C)C)n2)c1F [Example 478, 2,2,2-trifluoroacetate]', 'IC50', '0.012 µM'),
  ('CCOc1nc2nc(CCCOC)cn2cc1NC(=O)c1cccc(C(F)F)n1 [Example 242]', 'IC50', '0.003 µM'),
  ('CC(C)(O)c1cc2nc(C3CCOCC3)cn2cc1NC(=O)c1cccc(C(F)F)n1 [Example 292]', 'IC50', '0.001 µM'),
  ('CCOc1cc2nc(C3CCOCC3)cn2cc1NC(=O)c1ccccn1 [Example 216]', 'IC50', '0.023 µM'),
  ('N#CC1CCC(Oc2cc3nc(C4CCOCC4)cn3cc2NC(=O)c2cccc(C(F)F)n2)C1 (stereo not drawn) [Example 179]', 'IC50', '0.001 µM'),
  ('COc1nc(NC(=O)c2cccc3c2OCC3(F)F)cn2cc(C34COC(C)(C3)C4)nc12 [Example 446]', 'IC50', '0.008 µM'),
  ('CCOc1cc2nc(CCOC)cn2cc1NC(=O)c1cccc(C(F)F)n1 [Example 13]', 'IC50', '0.003 µM');
